- System: NCI-H2347
- measurement.protocol: relative viability (nuclei count vs DMSO), 5 days (fraction); higher = more cells survive
- condition.label: first compound 1 µM
Below, each of the molecules is paired with its reported relative viability value.
Please give only the number in your answer, with no unit.

molecule: O=c1cc(N2CCOCC2)oc2c(-c3cccc4c3sc3ccccc34)cccc12 + CS(=O)(=O)CCNCc1ccc(-c2ccc3ncnc(Nc4ccc(OCc5cccc(F)c5)c(Cl)c4)c3c2)o1 [Lapatinib] (partner 2 µM)
endpoint: relative viability
measurement: 0.973

Could you now look at the following molecule, please?
Query: # value lookup — system NCI-H2347, readout relative viability, item CCN(CC)CCCCNc1ncc2cc(-c3cc(OC)cc(OC)c3)c(NC(=O)NC(C)(C)C)nc2n1 + C[C@@H](Oc1cc(-c2cnn(C3CCNCC3)c2)cnc1N)c1c(Cl)ccc(F)c1Cl [Crizotinib] (partner 1 µM)
Reply: 0.793

---

relative viability values for the molecules below.
- Test system: NCI-H1355
- measurement.protocol: relative viability (nuclei count vs DMSO), 5 days (fraction); higher = more cells survive
- condition.label: first compound 2 µM
Lab note: record just the number, no unit beside it.

molecule: COCC1(CO)C(=O)C2CCN1CC2 (centres undefined) [PRIMA-1MET] + O=C(CCCCCCC(=O)Nc1ccccc1)NO [Vorinostat] (partner 1 µM)
target.system: NCI-H1355
measurement: 0.556
//
molecule: COCC1(CO)C(=O)C2CCN1CC2 (centres undefined) [PRIMA-1MET] + C[C@@H](Oc1cc(-c2cnn(C3CCNCC3)c2)cnc1N)c1c(Cl)ccc(F)c1Cl [Crizotinib] (partner 1 µM)
target.system: NCI-H1355
measurement: 0.897
//
molecule: COCC1(CO)C(=O)C2CCN1CC2 (centres undefined) [PRIMA-1MET] + NC(=O)Nc1cc(-c2cccc(F)c2)sc1C(=O)N[C@H]1CCCNC1 [AZD7762] (partner 0.2 µM)
target.system: NCI-H1355
measurement: 0.702

Here's the next entry for you.
Query: What value of relative viability on NCI-H1355 does COCC1(CO)C(=O)C2CCN1CC2 (centres undefined) [PRIMA-1MET] + CC(=O)c1c(C)c2cnc(Nc3ccc(N4CCNCC4)cn3)nc2n(C2CCCC2)c1=O [Palbociclib] (partner 0.5 µM) have?
Reply: 0.328

---

- System: ChaGo-K-1
- measurement.protocol: relative viability (nuclei count vs DMSO), 5 days (fraction); higher = more cells survive
- condition.label: first compound 1 µM
So basically, if relative viability comes in under 0.5 it's yes (1), and if it's 0.5 or more it's no (0).

compound: O=c1cc(N2CCOCC2)oc2c(-c3cccc4c3sc3ccccc34)cccc12 + Cc1nc(Nc2ncc(C(=O)Nc3c(C)cccc3Cl)s2)cc(N2CCN(CCO)CC2)n1 [Dasatinib] (partner 0.075 µM)
class.name: no (0)
--
compound: CCN(CC)CCCCNc1ncc2cc(-c3cc(OC)cc(OC)c3)c(NC(=O)NC(C)(C)C)nc2n1 + C[C@@H](Oc1cc(-c2cnn(C3CCNCC3)c2)cnc1N)c1c(Cl)ccc(F)c1Cl [Crizotinib] (partner 1 µM)
class.name: no (0)
--
compound: CCN(CC)CCCCNc1ncc2cc(-c3cc(OC)cc(OC)c3)c(NC(=O)NC(C)(C)C)nc2n1 + Nc1nc2[nH]cc(CCc3ccc(C(=O)N[C@@H](CCC(=O)O)C(=O)O)cc3)c2c(=O)[nH]1 [Pemetrexed] (partner 0.2 µM)
class.name: yes (1)
--
compound: CCN(CC)CCCCNc1ncc2cc(-c3cc(OC)cc(OC)c3)c(NC(=O)NC(C)(C)C)nc2n1 + CS(=O)(=O)N1CCN(Cc2cc3nc(-c4cccc5[nH]ncc45)nc(N4CCOCC4)c3s2)CC1 [Pictilisib] (partner 1 µM)
class.name: yes (1)

Then this compound:
Query: Strictly below 0.5: is that where relative viability of CCN(CC)CCCCNc1ncc2cc(-c3cc(OC)cc(OC)c3)c(NC(=O)NC(C)(C)C)nc2n1 + NC(=O)Nc1cc(-c2cccc(F)c2)sc1C(=O)N[C@H]1CCCNC1 [AZD7762] (partner 0.2 µM) sits?
Reply: no (0)
